Property: growth; scope: individual compounds
# Test system: CAKI-1 renal
# EXPERIMENT NOTES: NCI-60 one-dose screen, 48 h (100 = growth as untreated, 0 = no growth, -100 = all killed)
# CONDITION PARAMETERS: 10 µM
This is part of a sample that, as a whole, favours compounds with a hit. Of some 83,000 tested, about 20% had one in any assay. Calls of active or inactive are those of the source. Rule for the calls: active = growth percent below 10; inactive = the rest.

Quick note, growth for N/C(=N\c1nc2c(Cl)cccc2s1)C(Cl)(Cl)Cl landed at 43.9% (inactive)

Measured growth of C/C(=C(/c1ccc(O)cc1)c1ccc(OCCN(C)C)cc1)c1ccc(Cl)cc1 : 36.2% (inactive)

Form field growth, entry COc1cc2c3c(n(CCCNC4CCCCC4)c(=O)c2cc1OC)-c1cc2c(cc1C3=O)OCO2 : 73.9% (inactive)

Looking up Cn1c2ccccc2c2c3c(c4c5ccc(Br)cc5oc4c21)C(=O)N(O)C3=O , I see its growth listed as 40.4% (inactive)

----------
# Tested on: KM12 colon
# EXPERIMENT NOTES: NCI-60 one-dose screen, 48 h (100 = growth as untreated, 0 = no growth, -100 = all killed)
# CONDITION PARAMETERS: 10 µM unless noted
About 83,000 compounds went through this panel and 20% of them were active in at least one assay; those are over-represented in the sample as a whole.
Consider the following partition of reported growth into named classes: band A (below 40%), band B (40% to below 90%), band C (90% or more)

Below, 3 compounds whose answers are already recorded.
INSERT INTO results (compound, classification) VALUES
  ('COc1ccc(-c2no[n+]([O-])c2Nc2ccccc2Br)cc1', 'band C'),
  ('COc1ccc(-c2ccnc3c(C#N)c(Nc4ccccc4)nn23)cc1OC', 'band C'),
  ('Oc1ccc(CSc2nnc(-c3ccncc3)o2)c2cccnc12', 'band A');

Req: Pick a category. Item: COC(=O)c1c(C(=O)OC)c2n(CC(=O)Nc3cccc4cccnc34)c3ccccc3n2c1C(=O)c1ccc(C)cc1
Resp: band C

Req: Could you tell me which band CC1OC(O[C@@H]2C(O)C(CO)OC(O[C@H]3COC(O[C@H]4CC[C@]5(C)[C@H]6CC[C@]78OC[C@@]9(CC[C@](C)(C=O)C[C@H]97)[C@H](O)C[C@@]8(C)[C@]6(C)CC[C@H]5C4(C)C)[C@@H](OC4OC(CO)[C@@H](O)[C@@H](O)[C@@H]4O)[C@@H]3O)[C@H]2OC2OC[C@@H](O)[C@@H](O)[C@@H]2O)[C@@H](O)[C@@H](O)[C@H]1O (stereo not given in full) belongs to?
Resp: band A

Req: Exercise: read the entry O=C1CC2(CCOCC2)Oc2ncccc21 and state which class it falls under.
Resp: band A

Req: Bin this entry: CCCCCCCCCC[C@@H](C)[C@@H]1CC(=O)N[C@H]([C@@H](C)O)C(=O)N[C@@H](C)C(=O)N[C@H](C)C(=O)N[C@@H](CCC(N)=O)C(=O)N[C@H](Cc2ccc(O)cc2)C(=O)N[C@@H](C(C)CC)C(=O)O1 (stereo not given in full)
Resp: band B

Req: Note: place this compound into its band. Item: CC1(C)CC[C@]2(C(=O)N3CCCN(CC#N)CC3)CC[C@]3(C)C(=CC[C@@H]4[C@@]5(C)CC[C@H](O)C(C)(C)[C@@H]5CC[C@]43C)[C@H]2C1
Resp: band B

Req: # bin label for Oc1ccccc1-c1nnc(SCc2ccc(O)c3ncccc23)o1
Resp: band A

Req: Any idea which band CC[C@]12C=CCN3CC[C@]4(C(=C(C(=O)OC)C1)Nc1cc5c(cc14)[C@@H]1[C@H](O5)[C@@H](O)[C@@]4(CC)CC(C(=O)OC)=C5Nc6cc(OC)ccc6[C@@]56CCN1[C@@H]46)[C@@H]32 is in?
Resp: band A

Req: Into which bin does this compound go? CCC(=O)Nc1ccc(-c2nc(-c3cccc(O)c3)c(-c3ccnc(Br)c3)[nH]2)cc1
Resp: band B

----------
# Tested on: NCI-H226 lung
# EXPERIMENT NOTES: NCI-60 one-dose screen, 48 h
# CONDITION PARAMETERS: 10 µM unless noted
The panel holds about 83,000 compounds, 20% with a hit somewhere; the sample as a whole holds those more often. Active and inactive are the calls of the source. Rule for the calls: active = growth percent below 10; inactive = the rest.
Lab note: assign the record to one of active, inactive

# count of solved cases: 3
INSERT INTO assay_data (structure, target_of_assay, classification) VALUES
  ('O=c1cc(-c2ccccc2)nc2sc(-c3c[nH]c4ccc(Br)cc34)nn12', 'NCI-H226 lung', 'inactive'),
  ('O=C(NNc1nc2cc(F)c(F)cc2n2cccc12)c1ccncn1', 'NCI-H226 lung', 'inactive'),
  ('O=C1Nc2cc(OC(F)(F)F)ccc2Oc2ccc(-c3ccnc(N4CC[C@H](O)C4)c3)cc21', 'NCI-H226 lung', 'active');

Req: Field: outcome | Entry: COc1ccccc1N1CCN(C2=NN=C(c3cccc(Cl)c3)c3ccccc3C2)CC1
Resp: inactive

----------
# Test system: A498 renal
# EXPERIMENT NOTES: NCI-60 one-dose screen, 48 h
# CONDITION PARAMETERS: 10 µM unless noted
The panel holds about 83,000 compounds, 20% with a hit somewhere; the sample as a whole holds those more often. Calls of active or inactive are those of the source. How the source made its calls: active means growth percent below 10; inactive means the rest.
Your reply should match one of these outcome classes. active, inactive

Examples with answers:
INSERT INTO results (compound, classification) VALUES
  ('C#C[C@]1(O)CC[C@H]2[C@@H]3CC=C4c5sc(Nc6cccc(C)n6)nc5CC[C@]4(C)[C@H]3CC[C@@]21C', 'active'),
  ('CCN1C(=O)N(CC)C2SC(N/N=C/c3cccs3)=NC21 (stereo unspecified)', 'active'),
  ('C#C[C@]1(O)CC[C@H]2[C@@H]3CC=C4c5sc(-c6ccccn6)nc5CC[C@]4(C)[C@H]3CC[C@@]21C', 'inactive'),
  ('O=C(C[n+]1ccnc2ccccc21)c1ccc(O)c(O)c1', 'inactive'),
  ('Oc1ccc(CSc2nnc(-c3ccncc3)n2-c2ccccc2)c2cccnc12', 'inactive');

Now let's try a different one.
Req: Write down the call the test reported for this compound. Item: O=C1/C(=C/c2ccc([N+](=O)[O-])cc2)SC(=Nc2ccccc2)N1Nc1ccccc1
Resp: inactive

----------
# Test system: PC-3 prostate
# EXPERIMENT NOTES: NCI-60 one-dose screen, 48 h (100 = growth as untreated, 0 = no growth, -100 = all killed)
# CONDITION PARAMETERS: 10 µM unless noted
About 83,000 compounds went through this panel and 20% of them were active in at least one assay; those are over-represented in the sample as a whole. Activity calls are given as the source filed them. How the source made its calls: active means growth percent below 10; inactive means the rest.
MEASURED METRIC: growth

Worked examples, 3 compounds total:
INSERT INTO results (compound, experimental_value) VALUES
  ('C[C@H]1[C@H](C)CC[C@]2(COC(=O)c3cccnc3)CC[C@]3(C)C(=CC[C@@H]4[C@@]5(C)CCCNC(C)(C)[C@@H]5CC[C@]43C)[C@H]12', '35.8% (inactive)'),
  ('O=C(CN1C(=O)S/C(=C\c2ccccc2)C1=O)Nc1ccc(C(=O)/C=C/c2cc3ccccc3nc2Cl)cc1', '81.6% (inactive)'),
  ('NS(=O)(=O)c1ccc(Nc2nc(N/N=C/c3ccc(F)cc3)nc(Nc3ccccc3)n2)cc1', '39.9% (inactive)');

growth of COc1ccc(-c2cc(-c3ccc(Cl)cc3)nc3nc(N)nn23)cc1 , assay on PC-3 prostate, is 106% (inactive)

----------
# Test system: UACC-257 melanoma
# EXPERIMENT NOTES: NCI-60 one-dose screen, 48 h (100 = growth as untreated, 0 = no growth, -100 = all killed)
# CONDITION PARAMETERS: 10 µM
Compounds without any hit were thinned out: in the full panel of roughly 83,000, 20% have a hit.
MEASURED METRIC: growth (%)
Note: unit % is implicit; provide only the numeric part.

Some solved entries appear below for comparison.
INSERT INTO measurements (molecule, measured_metric, experimental_value) VALUES
  ('IP(CCCCCCCCCCSc1n(Cc2ccc3ccccc3c2)c(-c2ccccc2)c(-c2ccccc2)[n+]1Cc1ccc2ccccc2c1)(c1ccccc1)(c1ccccc1)c1ccccc1', 'growth', -55.8),
  ('COc1ccc([C@H]2[C@H](O)C(=O)N2c2cc(OC)c(OC)c(OC)c2)cc1Cl', 'growth', 40.8),
  ('COC[C@@]1(C)CC[C@]2(C)CC[C@]3(C)C(=CC[C@@H]4[C@@]5(C)CCCNC(C)(C)[C@@H]5CC[C@]43C)C2C1 (some centres not stated)', 'growth', 60);

The molecule identified as O=C(CN1CCN(c2cc(=O)n(-c3ccccc3)c3ccccc23)CC1)Nc1ccc([N+](=O)[O-])cc1 registered its growth at 90.3

Value of measured growth for the entry Cc1occc1-c1nc2s/c(=C\c3cn(-c4ccccc4)nc3-c3ccccc3)c(=O)n2n1 : 96

The molecule O=C(/C=C/c1cccc(O)c1)c1ccc(O)cc1 showed growth equal to 95.3
